- measured.on: Prostatic acid phosphatase (Homo sapiens)
- Sequence (P15309 whole entry): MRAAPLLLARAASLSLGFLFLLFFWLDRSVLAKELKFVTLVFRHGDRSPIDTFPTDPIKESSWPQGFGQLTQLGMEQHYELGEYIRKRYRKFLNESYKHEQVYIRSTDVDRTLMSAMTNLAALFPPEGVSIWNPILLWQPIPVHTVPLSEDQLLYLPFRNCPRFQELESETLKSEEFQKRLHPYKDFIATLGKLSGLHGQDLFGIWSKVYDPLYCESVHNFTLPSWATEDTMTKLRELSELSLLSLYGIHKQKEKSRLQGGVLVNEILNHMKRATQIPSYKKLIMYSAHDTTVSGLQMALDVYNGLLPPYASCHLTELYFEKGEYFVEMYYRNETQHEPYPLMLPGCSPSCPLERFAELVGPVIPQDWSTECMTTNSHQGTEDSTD
experimental.readout: IC50 (nM)
Numbers only here, please. The scale is nM.

# input What IC50 appears in the records for this compound with Prostatic acid phosphatase (Homo sapiens)? O=P(O)(O)C(NCc1ccccc1)c1cccc2ccccc12 (stereo unspecified)
# output 8.6

---

- experimental.details: Compound was tested for its inhibitory activity against Osteoclastic acid phosphatase
- Parameters: species or system Homo sapiens
experimental.readout: pIC50
Kindly note that pIC50 refers to -log10 of the concentration in mol/L and answer with the value alone.

# input Field request: pIC50 | item: O=C(c1ccccc1)C(C(=O)c1ccccc1)(c1cccc2ccccc12)P(=O)(O)O
# output 5.85

---

- measured.on: Receptor-type tyrosine-protein phosphatase C (Homo sapiens) (UniProt P08575)
- experimental.details: Compound was tested for its inhibitory activity against CD45 protein-tyrosine phosphatase of Jurkat cell membrane at 1000 uM concentration
- Format: cell-based
In this section we review reported inhibition values for a set of compounds.
Numbers only here, please. The scale is %.

// known answers, use as guide
>  <compound>
N#Cc1cccc(C(O)P(=O)(O)O)c1 (configuration not stated)

>  <measured.on>
Receptor-type tyrosine-protein phosphatase C (Homo sapiens) (UniProt P08575)

>  <experimental.readout>
inhibition

>  <val>
49

$$$$
>  <compound>
O=[N+]([O-])c1cccc(C(O)P(=O)(O)O)c1 (configuration not stated)

>  <measured.on>
Receptor-type tyrosine-protein phosphatase C (Homo sapiens) (UniProt P08575)

>  <experimental.readout>
inhibition

>  <val>
93

$$$$
>  <compound>
O=[N+]([O-])c1cc(C(O)P(=O)(O)O)ccc1O (configuration not stated)

>  <measured.on>
Receptor-type tyrosine-protein phosphatase C (Homo sapiens) (UniProt P08575)

>  <experimental.readout>
inhibition

>  <val>
8

$$$$
>  <compound>
CC(O)(c1cccc([N+](=O)[O-])c1)P(=O)(O)O (configuration not stated)

>  <measured.on>
Receptor-type tyrosine-protein phosphatase C (Homo sapiens) (UniProt P08575)

>  <experimental.readout>
inhibition

>  <val>
97

$$$$
>  <compound>
O=P(O)(O)C(O)c1ccccc1 (configuration not stated)

>  <measured.on>
Receptor-type tyrosine-protein phosphatase C (Homo sapiens) (UniProt P08575)

>  <experimental.readout>
inhibition

>  <val>
39

$$$$

# input Field request: inhibition | item: O=P(O)(O)C(O)c1cccc2ccccc12 (configuration not stated)
# output 53

# input Field request: inhibition | item: O=[N+]([O-])c1ccc(C(O)P(=O)(O)O)cc1 (configuration not stated)
# output 98

---

- measured.on: Receptor-type tyrosine-protein phosphatase C (Homo sapiens) (UniProt P08575)
- Sequence (whole entry): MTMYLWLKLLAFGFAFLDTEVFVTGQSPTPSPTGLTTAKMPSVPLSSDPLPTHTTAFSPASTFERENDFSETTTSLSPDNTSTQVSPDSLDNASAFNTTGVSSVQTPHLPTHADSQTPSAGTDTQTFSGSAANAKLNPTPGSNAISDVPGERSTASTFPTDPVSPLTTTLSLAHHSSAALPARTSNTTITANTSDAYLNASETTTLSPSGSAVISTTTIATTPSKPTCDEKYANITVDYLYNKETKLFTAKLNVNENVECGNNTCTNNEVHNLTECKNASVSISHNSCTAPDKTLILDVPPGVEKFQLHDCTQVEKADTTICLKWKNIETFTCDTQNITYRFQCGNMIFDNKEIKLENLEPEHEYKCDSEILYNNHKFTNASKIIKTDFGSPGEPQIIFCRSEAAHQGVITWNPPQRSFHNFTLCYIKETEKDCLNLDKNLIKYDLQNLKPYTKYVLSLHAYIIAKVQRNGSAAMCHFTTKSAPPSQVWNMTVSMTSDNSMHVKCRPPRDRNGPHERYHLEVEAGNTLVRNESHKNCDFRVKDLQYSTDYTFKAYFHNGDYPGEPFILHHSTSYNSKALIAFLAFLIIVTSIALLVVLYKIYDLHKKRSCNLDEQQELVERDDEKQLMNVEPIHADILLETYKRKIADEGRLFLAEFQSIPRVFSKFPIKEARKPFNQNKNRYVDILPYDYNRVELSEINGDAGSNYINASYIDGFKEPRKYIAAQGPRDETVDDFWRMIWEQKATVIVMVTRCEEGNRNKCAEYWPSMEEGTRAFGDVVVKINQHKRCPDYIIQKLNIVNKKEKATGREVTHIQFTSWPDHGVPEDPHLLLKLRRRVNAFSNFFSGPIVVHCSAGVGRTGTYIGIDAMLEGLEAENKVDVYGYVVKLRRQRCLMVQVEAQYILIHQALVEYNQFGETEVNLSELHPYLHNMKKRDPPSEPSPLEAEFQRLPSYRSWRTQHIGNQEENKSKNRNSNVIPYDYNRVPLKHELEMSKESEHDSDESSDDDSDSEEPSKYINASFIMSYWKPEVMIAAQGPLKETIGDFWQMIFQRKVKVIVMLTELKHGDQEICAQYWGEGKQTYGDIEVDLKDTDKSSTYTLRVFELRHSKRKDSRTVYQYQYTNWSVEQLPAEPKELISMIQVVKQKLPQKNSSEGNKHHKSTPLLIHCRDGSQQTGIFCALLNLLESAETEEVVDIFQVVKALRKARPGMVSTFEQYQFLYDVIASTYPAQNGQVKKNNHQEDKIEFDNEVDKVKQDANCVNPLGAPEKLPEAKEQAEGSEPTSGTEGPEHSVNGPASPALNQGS
- experimental.details: Inhibition of CD45 protein-tyrosine phosphatase of Jurkat cell membrane at 500 uM.
- Format: cell-based
Quick rule for you: inhibition at 50% or higher means fulfilled, lower means not fulfilled.

# input Does the molecule Nc1cccc(C(O)P(=O)(O)O)c1 (stereo not drawn) have recorded inhibition that is 50% or more?
# output not fulfilled

# input Does the molecule COc1ccc(C(O)P(=O)(O)O)cc1 (stereo not drawn) have recorded inhibition that is 50% or more?
# output not fulfilled

# input Does the molecule Cc1cccc(C(c2ccccc2)P(=O)(O)O)c1 (stereo not drawn) have recorded inhibition that is 50% or more?
# output not fulfilled

Ref: ChEMBL document CHEMBL1130370
